Test system: Escherichia coli TOP10
assay-details: shrunken log2 fold change of peptide-encoding DNA abundance (4.5 h post-induction vs induction); higher = less antimicrobial activity (less host growth inhibition)
protocol-conditions: time post-induction: 4.5 h; library: site-saturation at positions 5, 18, 19, 20
Can you tell me shrunken log2 fold change for the items I'm about to list?
Numbers only.

Consider the reported shrunken log2 fold change for these sequences:
{"sequence-string": "RRIRGRPPRLPRPRPRPAPPPRP", "shrunken log2 fold change": 1.07}
{"sequence-string": "RRIRKRPPRLPRPRPRPADCPRP", "shrunken log2 fold change": 0.117}

Form field shrunken log2 fold change for item `RRIRLRPPRLPRPRPRPGCHPRP` on Escherichia coli TOP10: -0.268

====

Test system: Escherichia coli TOP10
assay-details: shrunken log2 fold change of peptide-encoding DNA abundance (4.5 h post-induction vs induction); higher = less antimicrobial activity (less host growth inhibition)
protocol-conditions: time post-induction: 4.5 h; library: site-saturation at positions 5, 18, 19, 20
Provide the recorded shrunken log2 fold change for the entries that follow.
Answers are plain numbers.

Sample records with shrunken log2 fold change:
{"sequence-string": "RRIRRRPPRLPRPRPRPQNRPRP", "shrunken log2 fold change": 0.318}
{"sequence-string": "RRIRIRPPRLPRPRPRPNRHPRP", "shrunken log2 fold change": -0.0899}
{"sequence-string": "RRIRVRPPRLPRPRPRPRIPPRP", "shrunken log2 fold change": 0.183}
{"sequence-string": "RRIRTRPPRLPRPRPRPFGDPRP", "shrunken log2 fold change": 0.0755}
{"sequence-string": "RRIRGRPPRLPRPRPRPGLVPRP", "shrunken log2 fold change": 0.848}
{"sequence-string": "RRIRWRPPRLPRPRPRPILSPRP", "shrunken log2 fold change": -0.422}
{"sequence-string": "RRIRKRPPRLPRPRPRPMTWPRP", "shrunken log2 fold change": -0.00388}
{"sequence-string": "RRIRMRPPRLPRPRPRPSNAPRP", "shrunken log2 fold change": 0.405}

// each sequence listed below needs its shrunken log2 fold change
1. RRIRPRPPRLPRPRPRPHDAPRP
2. RRIRLRPPRLPRPRPRPRESPRP
3. RRIRDRPPRLPRPRPRPIQLPRP

Solution:
0.0201
0.787
0.0401

Dear colleague, could you please provide shrunken log2 fold change for the sequences listed below?
1. RRIRPRPPRLPRPRPRPHFNPRP
2. RRIRSRPPRLPRPRPRPCCPPRP
3. RRIRMRPPRLPRPRPRPLWAPRP
4. RRIRHRPPRLPRPRPRPYVHPRP
5. RRIRGRPPRLPRPRPRPALRPRP
6. RRIRTRPPRLPRPRPRPHCWPRP

Solution:
-0.433
-0.0457
0.509
-0.312
0.991
-0.0903

====

System: Escherichia coli TOP10
assay-details: shrunken log2 fold change of peptide-encoding DNA abundance (4.5 h post-induction vs induction); higher = less antimicrobial activity (less host growth inhibition)
protocol-conditions: time post-induction: 4.5 h; library: site-saturation at positions 5, 18, 19, 20
Mark yes (1) for reported shrunken log2 fold change of -0.2 or greater; mark no (0) for anything smaller.

Some solved cases for reference:
{"sequence-string": "RRIRNRPPRLPRPRPRPHATPRP", "label-value": "yes (1)"}
{"sequence-string": "RRIRMRPPRLPRPRPRPHRPPRP", "label-value": "yes (1)"}
{"sequence-string": "RRIRFRPPRLPRPRPRPTRDPRP", "label-value": "yes (1)"}
{"sequence-string": "RRIRMRPPRLPRPRPRPNAYPRP", "label-value": "yes (1)"}
{"sequence-string": "RRIRLRPPRLPRPRPRPKGWPRP", "label-value": "yes (1)"}
{"sequence-string": "RRIRNRPPRLPRPRPRPHRMPRP", "label-value": "yes (1)"}
{"sequence-string": "RRIRLRPPRLPRPRPRPSRCPRP", "label-value": "yes (1)"}
{"sequence-string": "RRIRIRPPRLPRPRPRPMPHPRP", "label-value": "yes (1)"}
{"sequence-string": "RRIRDRPPRLPRPRPRPYAPPRP", "label-value": "no (0)"}
{"sequence-string": "RRIRPRPPRLPRPRPRPDQYPRP", "label-value": "yes (1)"}

Exercise: Could you verify whether the entry `RRIRFRPPRLPRPRPRPYPVPRP` shows shrunken log2 fold change of no less than -0.2?
Solution: yes (1)

Exercise: # bool: shrunken log2 fold change of `RRIRVRPPRLPRPRPRPTALPRP` >= -0.2
Solution: yes (1)

Exercise: For this sequence, is measured shrunken log2 fold change -0.2 or higher? `RRIRLRPPRLPRPRPRPRIPPRP`
Solution: yes (1)

Exercise: Is reported shrunken log2 fold change greater than or equal to -0.2 here: `RRIRVRPPRLPRPRPRPDLLPRP`
Solution: no (0)

Exercise: Answer whether shrunken log2 fold change of `RRIRDRPPRLPRPRPRPGEIPRP` is greater than or equal to -0.2.
Solution: yes (1)

Exercise: # check: shrunken log2 fold change of `RRIRPRPPRLPRPRPRPIQLPRP` is greater than or equal to -0.2
Solution: yes (1)

Exercise: API: above_or_equal(metric=shrunken log2 fold change, cutoff=-0.2) for item `RRIRGRPPRLPRPRPRPDDEPRP`
Solution: yes (1)

====

System: Escherichia coli TOP10
assay-details: shrunken log2 fold change of peptide-encoding DNA abundance (4.5 h post-induction vs induction); higher = less antimicrobial activity (less host growth inhibition)
protocol-conditions: time post-induction: 4.5 h; library: site-saturation at positions 5, 18, 19, 20
Provide the reported shrunken log2 fold change of each item.
Answers are plain numbers.

Some sequences with recorded shrunken log2 fold change:
{"sequence-string": "RRIRCRPPRLPRPRPRPWGNPRP", "study-system": "Escherichia coli TOP10", "shrunken log2 fold change": -0.256}
{"sequence-string": "RRIRIRPPRLPRPRPRPYHMPRP", "study-system": "Escherichia coli TOP10", "shrunken log2 fold change": -0.123}
{"sequence-string": "RRIRMRPPRLPRPRPRPEQTPRP", "study-system": "Escherichia coli TOP10", "shrunken log2 fold change": 0.057}

Return reported shrunken log2 fold change values for all items listed beneath this line.
1. RRIRFRPPRLPRPRPRPQYLPRP
2. RRIRTRPPRLPRPRPRPFWHPRP
3. RRIRERPPRLPRPRPRPELRPRP

Solution:
1: -0.329; 2: 0.23; 3: 0.0526

Fill in: Escherichia coli TOP10 shrunken log2 fold change for `RRIRWRPPRLPRPRPRPKGMPRP` = -0.159

====

Test system: Escherichia coli TOP10
assay-details: shrunken log2 fold change of peptide-encoding DNA abundance (4.5 h post-induction vs induction); higher = less antimicrobial activity (less host growth inhibition)
protocol-conditions: time post-induction: 4.5 h; library: site-saturation at positions 5, 18, 19, 20
Decide by shrunken log2 fold change: equal to or exceeding 0.2 means satisfied, less means not satisfied.

Solved cases (3 shown):
{"sequence-string": "RRIRWRPPRLPRPRPRPMKLPRP", "study-system": "Escherichia coli TOP10", "label-value": "not satisfied"}
{"sequence-string": "RRIRHRPPRLPRPRPRPGFRPRP", "study-system": "Escherichia coli TOP10", "label-value": "satisfied"}
{"sequence-string": "RRIRRRPPRLPRPRPRPLIHPRP", "study-system": "Escherichia coli TOP10", "label-value": "not satisfied"}

Exercise: Quick check, shrunken log2 fold change >= 0.2? `RRIRQRPPRLPRPRPRPRDWPRP`
Solution: satisfied

Exercise: Is reported shrunken log2 fold change greater than or equal to 0.2 here: `RRIRRRPPRLPRPRPRPWAPPRP`
Solution: not satisfied

====

Test system: Escherichia coli TOP10;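 also: peptides expressed intracellularly from a pBAD plasmid library in pooled LB shake-flask culture, induced with 0.3% L-arabinose, DNA abundance read by NGS, three biological replicates, DESeq2 with apeglm shrinkage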
assay-details: shrunken log2 fold change of peptide-encoding DNA abundance (4.5 h post-induction vs induction); higher = less antimicrobial activity (less host growth inhibition)
protocol-conditions: time post-induction: 4.5 h; library: site-saturation at positions 5, 18, 19, 20
parameter-measured: shrunken log2 fold change

Examples with their reported shrunken log2 fold change follow.
{"sequence-string": "RRIRMRPPRLPRPRPRPGFQPRP", "observed-value": 0.151}
{"sequence-string": "RRIRNRPPRLPRPRPRPQPLPRP", "observed-value": -0.102}
{"sequence-string": "RRIRHRPPRLPRPRPRPWGTPRP", "observed-value": -0.44}
{"sequence-string": "RRIRHRPPRLPRPRPRPEFCPRP", "observed-value": -0.0591}
{"sequence-string": "RRIRCRPPRLPRPRPRPPVEPRP", "observed-value": 0.35}
{"sequence-string": "RRIRMRPPRLPRPRPRPWMAPRP", "observed-value": -0.0347}

Record shrunken log2 fold change for all entries; do not skip any.
1. RRIRWRPPRLPRPRPRPCYFPRP
2. RRIRVRPPRLPRPRPRPIEQPRP
3. RRIRDRPPRLPRPRPRPKSTPRP

Solution:
[-0.0204, -0.14, -0.175]

Provide the reported shrunken log2 fold change of each entry below, same order.
1. RRIRFRPPRLPRPRPRPDIFPRP
2. RRIRNRPPRLPRPRPRPEAPPRP
3. RRIRRRPPRLPRPRPRPHNMPRP

Solution:
[-0.396, 3.17, -0.697]

src = the supplement of paper PMC9112550
